Tested on: Staphylococcus aureus
Details: Concentration 32 ug.mL-1;; ASSAY_TEST Inhibition of Bacterial Growth; detection method Absorption (OD600); MEDIA CAMHB; plate type 384well; NBS; CORNING #3640; time 18 hr
Description: Antibacterial activity against Staphylococcus aureus MRSA ATCC 43300 (CO-ADD:GP_020); MIC in CAMBH media, using NBS plates, by OD(600)
Entries with a potency or affinity are not part of this list.
metric_name: Inhibition (%)
Could you give me the number in %? Just the number is fine.

Entry CCc1ccccc1NC(=O)Cn1c(=O)c2nnc(C(C)C)n2c2ccccc21 : reported Inhibition = ?
5.45

Try CC(C)CCn1c(=O)c2sccc2n2c(=O)n(CC(=O)N(C)c3ccccc3)nc12 next.
-2.05

# repeat for Cc1ccc(C)c(CN(c2ccc(F)c(F)c2)S(=O)(=O)c2cccn3cnnc23)c1
5.14

Again, but for CCOc1ccc(NC(=O)Cn2nc3ccc(-c4ccccc4)nn3c2=O)cc1
5.36

How about this molecule: COC(=O)c1ccc(NC(=O)Cn2nc3c4cc(-c5ccc(OC)cc5)nn4ccn3c2=O)cc1
11.91

Now the same for Cc1cc(C)c(NC(=O)Cn2nc3ccc(SCc4ccc(Cl)cc4)nn3c2=O)c(C)c1
-5.02

Follow-up item: Cc1ccc(Cn2c(=O)c3ccc(C(=O)NC4CCCC4)cc3n3c(=O)n(CC#N)nc23)cc1
2.21

Queued: CCc1nnc2c(SCC(=O)Nc3ccccc3Br)nc3ccccc3n12
10.46

Let us now turn to CCCCOc1ccc(-c2cc3c4nnc(SCC(=O)Nc5cc(F)ccc5C)n4ccn3n2)cc1
-12.48

Now the molecule Cc1ccc(F)cc1NC(=O)CSc1nnc2ccc(C(=O)Nc3cccc(F)c3)cn12
13.04

Try COc1cccc(Oc2nccn3c(=O)n(CC(=O)Nc4ccc(OC)c(OC)c4)nc23)c1 next.
15.47

Next record, please: COc1ccc(N(Cc2cccc(F)c2)S(=O)(=O)c2ccc3nncn3c2)cc1
-9.11

Follow-up entry: O=C(Cn1nc2c(SC3CCCCC3)nccn2c1=O)Nc1ccc(F)cc1
2.79

Further, for COC(=O)c1ccc(Cn2nc3ccc(S(=O)(=O)N4CCCCCC4)cn3c2=O)o1 ?
-11.6

Now this one: COc1cc(NC(=O)Cn2nc3c4c5c(sc4ncn3c2=O)CCCC5)cc(OC)c1OC
7.91

What do we get for Cc1ccc(-c2cc3c4nnc(CCC(=O)N5CCN(c6ccccn6)CC5)n4ccn3n2)cc1C ?
-0.56

Another molecule to check: COc1ccc(C(=O)CSc2nnc3c(=O)n(-c4ccc(F)c(F)c4)ccn23)cc1OC
3.91

O=c1n(Cc2cccc(C(F)(F)F)c2)nc2ccc(S(=O)(=O)N3CCCC3)cn12 , same question.
14.07

Then what about the molecule O=C(Cn1nc2c(N3CCOCC3)nccn2c1=O)Nc1ccc(Cl)cc1F ?
8.72

Moving on to the next molecule: Cc1ccc(Oc2nccn3c(=O)n(CC(=O)Nc4ccc(C)cc4Br)nc23)cc1
4.05

Another molecule to check: CCCCc1ccc(NC(=O)Cn2nc3ccc(-c4ccc(C)c(C)c4)nn3c2=O)cc1
7.91

Subsequent entry: COc1ccc(C)cc1NC(=O)Cn1nc2ccc(SC(C)(C)C)nn2c1=O
2.65

Follow-up entry: CCOc1ccc(NC(=O)Cn2c(=O)c3nnc(C(C)C)n3c3ccccc32)cc1
13.61

Request: O=c1c2nnc(-c3ccc([N+](=O)[O-])cc3)n2ccn1-c1ccc(F)c(F)c1
-6.17

Would you kindly repeat that for COc1ccc(-c2cc3c4nn(CC(=O)NCc5ccccc5Cl)c(=O)n4ccn3n2)cc1 ?
8.73

Queued: COc1ccc(CN(c2ccc(C(C)C)cc2)S(=O)(=O)c2cccn3cnnc23)cc1
4.26

Same thing, different molecule: CCOc1ccc(-n2ccn3c(SCC(=O)NCc4cccc(OC)c4OC)nnc3c2=O)cc1
12.04

Another molecule: COc1ccc(-c2cc3c4nn(CC(=O)Nc5ccccc5)c(=O)n4ccn3n2)cc1
3.97

Could you do the same for CCOC(=O)c1cccc(NC(=O)CSc2nc3ccccc3n3c(C(C)C)nnc23)c1 , please?
7.87

Record: Cc1ccc(CN(c2ccc(F)cc2)S(=O)(=O)c2ccc3nnc(C)n3c2)cc1
-8.78

What would you report for COc1ccc2[nH]cc(C(=O)CSc3nnc4c(=O)n(-c5cccc(Cl)c5C)ccn34)c2c1 ?
18.84

Entry to check: Cc1c(Cl)cccc1-n1ccn2c(=S)[nH]nc2c1=O
26.02
